# System: HeLa MZ
# Method description: filipin (cholesterol) integrated intensity within LBPA endosomes, Z-score; higher = more cholesterol in LBPA endosomes
# Recorded conditions: compound concentration in added solution (µM; 5 µl added to 20 µl cells): 10; 18 h
Structures can show the parent of a compound that is named as a salt.
Value kind: filipin (z-score)
I only need the number, thanks.

# returns recorded filipin (z-score) (system: HeLa MZ) for Cn1ccnc1S
-0.58

# returns recorded filipin (z-score) (system: HeLa MZ) for CCN(CC)C(=O)/C(C#N)=C/c1cc(O)c(O)c([N+](=O)[O-])c1
-0.52

# returns recorded filipin (z-score) (system: HeLa MZ) for N=C(N)NS(=O)(=O)c1ccc(N)cc1
-0.493

# returns recorded filipin (z-score) (system: HeLa MZ) for CC(C(=O)O)c1cccc(C(=O)c2ccccc2)c1 (centres undefined)
-0.545

# returns recorded filipin (z-score) (system: HeLa MZ) for O=S(=O)(O)c1cc(O)ccc1O [Ethamsylate]
-0.57

# returns recorded filipin (z-score) (system: HeLa MZ) for CCCc1cc(C(N)=S)ccn1 [Prothionamide]
-0.377

# returns recorded filipin (z-score) (system: HeLa MZ) for CC(=O)O[C@H]1C[C@@H]2CC[C@@H]3[C@H](CC[C@@]4(C)[C@H]3C[C@H]([N+]3(C)CCCCC3)[C@@H]4OC(C)=O)[C@@]2(C)C[C@@H]1N1CCCCC1 [Vecuronium bromide]
-0.215

# returns recorded filipin (z-score) (system: HeLa MZ) for COc1cc(C(=O)OCCCN2CCCN(CCCOC(=O)c3cc(OC)c(OC)c(OC)c3)CC2)cc(OC)c1OC [Dilazep dihydrochloride]
4.35

# returns recorded filipin (z-score) (system: HeLa MZ) for CC(=O)Oc1ccccc1C(=O)O
-0.51

###

# Tested on: A431
# Method description: LBPA endosome anti-LBPA integrated intensity (sum per cell), Z-score; higher = more LBPA staining
# Recorded conditions: compound concentration in added solution (µM; 5 µl added to 20 µl cells): 10; 18 h
Counter-ions that a name gives are not always drawn.
Value kind: LBPA endosome anti-LBPA integrated intensity (z-score)
I only need the number, thanks.

For the compound shown here, CC(=O)N(O)CCCCCNC(=O)CCC(=O)N(O)CCCCCNC(=O)CCC(=O)N(O)CCCCCN [Deferoxamine mesylate] , give the reported LBPA endosome anti-LBPA integrated intensity (z-score).
-0.408

For the compound shown here, CCCCOc1ccc(C(=O)CCN2CCCCC2)cc1 [Dyclonine hydrochloride] , give the reported LBPA endosome anti-LBPA integrated intensity (z-score).
0.717

For the compound shown here, CCCc1cc(C(N)=S)ccn1 [Prothionamide] , give the reported LBPA endosome anti-LBPA integrated intensity (z-score).
-0.257

For the compound shown here, CCN[C@H]1CN(CCCOC)S(=O)(=O)c2sc(S(N)(=O)=O)cc21 [Brinzolamide] , give the reported LBPA endosome anti-LBPA integrated intensity (z-score).
-0.542

For the compound shown here, C[C@H]1O[C@H](O[C@H]2[C@H](O)[C@@H](O)[C@@H](O[C@H]3[C@H](O)[C@@H](O)C(O)O[C@@H]3CO)O[C@@H]2CO)[C@H](O)[C@@H](O)[C@@H]1N[C@H]1C=C(CO)[C@@H](O)[C@H](O)[C@H]1O (some centres not stated) [Acarbose] , give the reported LBPA endosome anti-LBPA integrated intensity (z-score).
-0.482

For the compound shown here, CCCOc1ccccc1-c1nc2[nH]nnc2c(=O)[nH]1 [Zaprinast] , give the reported LBPA endosome anti-LBPA integrated intensity (z-score).
-0.577

For the compound shown here, Nc1cc(N2CCCCC2)nc(N)[n+]1[O-] [Minoxidil] , give the reported LBPA endosome anti-LBPA integrated intensity (z-score).
-0.316

For the compound shown here, COc1ccc2c(c1)C(=O)N(CCc1ccc(S(=O)(=O)NC(=O)NC3CCCCC3)cc1)C(=O)C2(C)C [Gliquidone] , give the reported LBPA endosome anti-LBPA integrated intensity (z-score).
-0.483

For the compound shown here, CC(=O)OCC(=O)[C@@]1(O)[C@H](C)C[C@H]2[C@@H]3CCC4=CC(=O)C=C[C@]4(C)[C@@]3(F)[C@@H](O)C[C@@]21C [Dexamethasone acetate] , give the reported LBPA endosome anti-LBPA integrated intensity (z-score).
-0.279

For the compound shown here, CC(=O)SCC(Cc1ccccc1)C(=O)NCC(=O)OCc1ccccc1 (configuration not stated) [Racecadotril] , give the reported LBPA endosome anti-LBPA integrated intensity (z-score).
-0.747

For the compound shown here, COc1ccc(C(=O)c2ccccc2)c(O)c1 [Oxybenzone] , give the reported LBPA endosome anti-LBPA integrated intensity (z-score).
-0.5

For the compound shown here, CCOc1ccc(NC(C)=O)cc1 [Phenacetin] , give the reported LBPA endosome anti-LBPA integrated intensity (z-score).
-0.594

For the compound shown here, C[N+](C)(C)CCOC(N)=O [Carbachol] , give the reported LBPA endosome anti-LBPA integrated intensity (z-score).
-0.538

For the compound shown here, CCOC(=O)[C@H](CCc1ccccc1)N[C@@H](C)C(=O)N1Cc2ccccc2C[C@H]1C(=O)O [Quinapril HCl] , give the reported LBPA endosome anti-LBPA integrated intensity (z-score).
-0.508

For the compound shown here, CC(C)C(=O)c1c(C(C)C)nn2ccccc12 [Ibudilast] , give the reported LBPA endosome anti-LBPA integrated intensity (z-score).
-0.434

For the compound shown here, CC[C@H](C)C(=O)O[C@H]1CCC=C2C=C[C@H](C)[C@H](CC[C@@H]3C[C@@H](O)CC(=O)O3)[C@H]21 [Mevastatin] , give the reported LBPA endosome anti-LBPA integrated intensity (z-score).
-1.03

For the compound shown here, CC(C)(Oc1ccc(CCNC(=O)c2ccc(Cl)cc2)cc1)C(=O)O [Bezafibrate] , give the reported LBPA endosome anti-LBPA integrated intensity (z-score).
-0.429

###

# Test system: A431
# Method description: LBPA endosome anti-LBPA integrated intensity (sum per cell), Z-score; higher = more LBPA staining
# Recorded conditions: compound concentration in added solution (µM; 5 µl added to 20 µl cells): 10; 18 h
Threshold rule: LBPA endosome anti-LBPA integrated intensity (z-score) greater than or equal to -0.5 is yes; below that, no.

Check the entry CCC[C@H](N[C@@H](C)C(=O)N1[C@H](C(=O)O)C[C@@H]2CCCC[C@@H]21)C(=O)OCC : does LBPA endosome anti-LBPA integrated intensity (z-score) equal or exceed -0.5?
yes

Check the entry CC(C)c1c(C(=O)Nc2ccccc2)c(-c2ccccc2)c(-c2ccc(F)cc2)n1CC[C@@H](O)C[C@@H](O)CC(=O)O : does LBPA endosome anti-LBPA integrated intensity (z-score) equal or exceed -0.5?
no

Check the entry CC(=O)OCC(=O)[C@@]12N=C(C)O[C@@H]1C[C@H]1[C@@H]3CCC4=CC(=O)C=C[C@]4(C)[C@H]3[C@@H](O)C[C@@]12C : does LBPA endosome anti-LBPA integrated intensity (z-score) equal or exceed -0.5?
yes

Check the entry Nc1ccccc1S(N)(=O)=O [2-Aminobenzenesulfonamide] : does LBPA endosome anti-LBPA integrated intensity (z-score) equal or exceed -0.5?
yes

Check the entry C[C@H](O)C(=O)Nc1c(I)c(C(=O)NC(CO)CO)c(I)c(C(=O)NC(CO)CO)c1I : does LBPA endosome anti-LBPA integrated intensity (z-score) equal or exceed -0.5?
no

Check the entry O=C(C1CCCCC1)N1CC(=O)N2CCc3ccccc3C2C1 (configuration not stated) : does LBPA endosome anti-LBPA integrated intensity (z-score) equal or exceed -0.5?
yes

Check the entry Cc1onc(-c2c(F)cccc2Cl)c1C(=O)N[C@@H]1C(=O)N2[C@@H]1SC(C)(C)[C@@H]2C(=O)O [Flucloxacillin sodium] : does LBPA endosome anti-LBPA integrated intensity (z-score) equal or exceed -0.5?
yes

###

# Tested on: A431
# Method description: LBPA endosome anti-LBPA integrated intensity (sum per cell), Z-score; higher = more LBPA staining
# Recorded conditions: compound concentration in added solution (µM; 5 µl added to 20 µl cells): 10; 18 h
Structures can show the parent of a compound that is named as a salt.
Value kind: LBPA endosome anti-LBPA integrated intensity (z-score)
I only need the number, thanks.

For the compound shown here, OC(CCN1CCCCC1)(c1ccccc1)C1CC2C=CC1C2 (centres undefined) [Biperiden hydrochloride] , give the reported LBPA endosome anti-LBPA integrated intensity (z-score).
1.21

For the compound shown here, O=C1Cc2cc(CCN3CCN(c4nsc5ccccc45)CC3)c(Cl)cc2N1 [Ziprasidone Hydrochloride] , give the reported LBPA endosome anti-LBPA integrated intensity (z-score).
1.04

For the compound shown here, Nc1c(Br)cc(Br)cc1CN[C@H]1CC[C@H](O)CC1 [Ambroxol hydrochloride] , give the reported LBPA endosome anti-LBPA integrated intensity (z-score).
-0.487

For the compound shown here, CCCNC(C)(C)COC(=O)c1ccccc1 [Meprylcaine hydrochloride] , give the reported LBPA endosome anti-LBPA integrated intensity (z-score).
-0.522
